# system-tested: UniProt P04483
# Sequence (P04483 whole entry, looked up): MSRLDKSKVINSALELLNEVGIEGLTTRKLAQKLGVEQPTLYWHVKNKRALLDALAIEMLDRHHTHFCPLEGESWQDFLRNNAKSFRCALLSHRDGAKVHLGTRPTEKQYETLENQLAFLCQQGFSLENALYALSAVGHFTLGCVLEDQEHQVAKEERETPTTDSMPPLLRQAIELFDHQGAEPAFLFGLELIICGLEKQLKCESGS
# conditions: high-copy plasmid, LB, 37°C; extracellular inducer; induction (derepression); lumped parameter of uptake, DNA binding and Kd, not a pure affinity; read-out: Half maximal parameter
measured-endpoint: pEC50
Please note pEC50 is a logarithmic value: minus log10 of concentration in mol/L. Answer with that number alone.

*Q* API: value(readout=pEC50, system=UniProt P04483) for record Cc1c2c(c(O)c3c(O)cccc13)C(=O)[C@]1(O)C(=O)C(C(N)=O)=C(O)[C@@H](N(C)C)[C@@H]1C2 [anhydrotetracycline]
*A* 7.09

---

# system-tested: CdaR (Escherichia coli, UniProt P37047)
# Sequence (P37047 whole entry): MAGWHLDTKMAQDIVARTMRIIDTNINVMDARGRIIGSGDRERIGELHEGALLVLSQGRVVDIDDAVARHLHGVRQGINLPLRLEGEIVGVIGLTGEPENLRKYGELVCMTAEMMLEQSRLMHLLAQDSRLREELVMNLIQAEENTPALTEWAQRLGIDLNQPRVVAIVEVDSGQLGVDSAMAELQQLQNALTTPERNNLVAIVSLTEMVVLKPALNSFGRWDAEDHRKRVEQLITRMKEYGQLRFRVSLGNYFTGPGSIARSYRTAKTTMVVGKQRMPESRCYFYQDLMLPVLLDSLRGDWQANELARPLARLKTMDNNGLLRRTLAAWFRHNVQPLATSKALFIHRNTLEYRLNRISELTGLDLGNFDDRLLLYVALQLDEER
# conditions: high-copy plasmid, LB, 37°C; extracellular inducer; activation; lumped parameter of uptake, DNA binding and Kd, not a pure affinity; read-out: Half maximal parameter
measured-endpoint: pEC50
// scale note: pEC50 = -log10(conc_M); give the bare number

*Q* Which pEC50 is reported for this compound? O=C(O)[C@@H](O)[C@@H](O)[C@H](O)[C@@H](O)C(=O)O [glucarate]
*A* 3.31
